molecular target: GIPR (glucose-dependent insulinotropic peptide receptor) (Homo sapiens); test: Inhibition of GIP-stimulated cAMP production in CHO cells expressing GIPR
Sequence (P48546 22-466): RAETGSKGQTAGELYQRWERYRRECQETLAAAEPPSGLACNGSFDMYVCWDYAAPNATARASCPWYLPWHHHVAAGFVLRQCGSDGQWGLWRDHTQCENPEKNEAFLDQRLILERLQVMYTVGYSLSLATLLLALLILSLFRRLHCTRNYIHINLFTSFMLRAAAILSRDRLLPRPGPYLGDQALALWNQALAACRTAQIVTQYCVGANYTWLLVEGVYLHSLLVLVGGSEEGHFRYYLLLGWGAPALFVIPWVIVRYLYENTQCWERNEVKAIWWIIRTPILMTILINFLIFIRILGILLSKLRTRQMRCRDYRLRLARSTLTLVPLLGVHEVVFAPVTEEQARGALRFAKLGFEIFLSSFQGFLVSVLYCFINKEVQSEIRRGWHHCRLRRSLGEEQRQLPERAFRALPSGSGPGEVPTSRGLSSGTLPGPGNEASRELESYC
PROPERTY NAME: IC50 (nM)
The answer is to be given in nM; state only the numeric part.

Prompt: What value of IC50 on GIPR (glucose-dependent insulinotropic peptide receptor) (Homo sapiens) does COc1ccc2cc(-c3cc(-c4cc(C(F)(F)F)ccc4F)nn3[C@@H](C)c3ccc(C(=O)NCCC(=O)O)cc3)ccc2c1 [GRA1] have?
Response: 933

---

experiment: Pharmacokinetics / plasma GRA1 concentrations in hGCGR mice; format: in vivo; conditions: mouse, single oral 3 mg/kg, 1 h postdose (occupancy experiment)
PROPERTY NAME: concentration at 1 h (nM)
The answer is to be given in nM; state only the numeric part.

Prompt: For the compound COc1ccc2cc(-c3cc(-c4cc(C(F)(F)F)ccc4F)nn3[C@@H](C)c3ccc(C(=O)NCCC(=O)O)cc3)ccc2c1 , what concentration at 1 h is on record?
Response: 500

---

experiment: Pharmacokinetics / plasma GRA1 concentrations in rhesus monkeys; type: in vivo, rhesus monkey; conditions: rhesus monkey, plasma, single oral dose 2 mg/kg, read-out: Apparent plasma terminal half-life (converted)
PROPERTY NAME: half-life (h)
The answer is to be given in h; state only the numeric part.

Prompt: For the compound COc1ccc2cc(-c3cc(-c4cc(C(F)(F)F)ccc4F)nn3[C@@H](C)c3ccc(C(=O)NCCC(=O)O)cc3)ccc2c1 [GRA1] , what half-life is on record?
Response: 6.3

---

target: human GCGR (hGCGR) (Homo sapiens); construct: expressed in transfected cells; experiment: Inhibition of glucagon-stimulated cAMP production in intact CHO cells expressing human GCGR; format: cell-based
Sequence (P47871 26-477): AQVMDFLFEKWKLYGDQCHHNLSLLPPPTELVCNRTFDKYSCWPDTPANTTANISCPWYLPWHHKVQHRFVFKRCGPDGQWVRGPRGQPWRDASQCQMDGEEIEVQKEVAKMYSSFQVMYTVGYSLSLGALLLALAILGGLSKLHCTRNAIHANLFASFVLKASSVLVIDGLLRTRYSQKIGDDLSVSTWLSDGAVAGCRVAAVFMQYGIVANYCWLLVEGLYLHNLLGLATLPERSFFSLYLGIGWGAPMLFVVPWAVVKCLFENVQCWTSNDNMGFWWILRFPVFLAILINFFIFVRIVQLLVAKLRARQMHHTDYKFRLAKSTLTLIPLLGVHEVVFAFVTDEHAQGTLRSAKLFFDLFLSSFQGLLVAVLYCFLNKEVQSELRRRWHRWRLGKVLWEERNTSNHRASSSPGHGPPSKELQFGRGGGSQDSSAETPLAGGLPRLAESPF
PROPERTY NAME: IC50 (nM)
The answer is to be given in nM; state only the numeric part.

Prompt: For the compound COc1ccc2cc(-c3cc(-c4cc(C(F)(F)F)ccc4F)nn3[C@@H](C)c3ccc(C(=O)NCCC(=O)O)cc3)ccc2c1 [GRA1] , what IC50 is on record?
Response: 12

---

assay: Pharmacokinetics / plasma GRA1 concentrations in hGCGR mice; format: in vivo; settings: mouse, oral, 10 mg/kg p.o., 1 h postdose (glucagon challenge)
PROPERTY NAME: concentration at 1 h
Hi, when you answer, please include the unit after the number. Thanks!

Prompt: For the compound COc1ccc2cc(-c3cc(-c4cc(C(F)(F)F)ccc4F)nn3[C@@H](C)c3ccc(C(=O)NCCC(=O)O)cc3)ccc2c1 , what concentration at 1 h is on record?
Response: 900 nM
